Assayed system: Thromboxane A2 receptor (Homo sapiens); note: assay procedure not described here
Sequence (P21731 whole entry): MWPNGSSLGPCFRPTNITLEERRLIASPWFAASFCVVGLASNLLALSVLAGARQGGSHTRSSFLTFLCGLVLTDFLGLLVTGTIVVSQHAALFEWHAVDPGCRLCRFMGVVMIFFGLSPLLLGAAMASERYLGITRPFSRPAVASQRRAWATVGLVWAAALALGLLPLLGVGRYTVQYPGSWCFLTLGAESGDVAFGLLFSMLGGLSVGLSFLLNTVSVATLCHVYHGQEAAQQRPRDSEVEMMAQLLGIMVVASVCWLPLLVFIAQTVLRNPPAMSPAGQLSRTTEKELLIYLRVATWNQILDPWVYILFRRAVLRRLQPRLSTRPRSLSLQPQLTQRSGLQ
Type: functional, cell-based
Provide the reported AC50 of each item.

Input line: Which AC50 value belongs to Nc1nc(N)c2nc(-c3ccccc3)c(N)nc2n1 ?
Output line: > 30 µM

Input line: Now the compound CC(C)C(=O)Nc1ccc([N+](=O)[O-])c(C(F)(F)F)c1 [FLUTAMIDE]
Output line: 6 µM

Input line: Now the compound CC(C)NNC(=O)c1ccncc1 [IPRONIAZID]
Output line: > 30 µM

###

Assayed system: 5-hydroxytryptamine receptor 2B (Homo sapiens, UniProt P41595); note: assay procedure not described here
Sequence (P41595 whole entry): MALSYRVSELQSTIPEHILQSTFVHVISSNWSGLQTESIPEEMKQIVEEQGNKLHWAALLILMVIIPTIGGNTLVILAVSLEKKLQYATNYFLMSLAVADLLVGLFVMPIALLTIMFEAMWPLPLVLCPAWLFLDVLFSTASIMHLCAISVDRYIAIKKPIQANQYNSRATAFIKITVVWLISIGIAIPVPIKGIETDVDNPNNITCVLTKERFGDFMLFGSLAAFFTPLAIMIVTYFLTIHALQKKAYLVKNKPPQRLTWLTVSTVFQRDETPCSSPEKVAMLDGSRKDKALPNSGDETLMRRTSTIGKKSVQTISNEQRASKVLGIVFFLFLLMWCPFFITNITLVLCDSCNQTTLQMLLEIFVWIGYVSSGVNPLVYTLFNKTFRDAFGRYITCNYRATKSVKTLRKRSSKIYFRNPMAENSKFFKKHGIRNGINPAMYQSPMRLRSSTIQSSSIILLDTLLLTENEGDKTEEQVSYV
Assay type: functional, cell-based
Metric: AC50

Input line: Which AC50 value belongs to CCCCCN(C)CCC(O)(P(=O)(O)O)P(=O)(O)O ?
Output line: > 30 µM

Input line: Now the compound C[C@]12CCC(=O)C=C1CC[C@@H]1[C@@H]2CC[C@@]2(C)[C@H]1CC[C@]2(C)O
Output line: 22 µM

Input line: Now the compound N/N=c1/cc2c(n[nH]1)CCN(C(=O)c1ccccc1)C2
Output line: > 30 µM

Input line: Now the compound NC(=O)c1ncn([C@@H]2O[C@H](CO)[C@@H](O)[C@H]2O)c1O
Output line: > 30 µM

Input line: Now the compound O=C(Cn1ccnc1[N+](=O)[O-])NCc1ccccc1
Output line: > 30 µM

Input line: Now the compound NS(=O)(=O)c1cc2c(cc1Cl)NCNS2(=O)=O [HYDROCHLOROTHIAZIDE]
Output line: > 10 µM

Input line: Now the compound CCCCCCCCOc1ccccc1C(=O)Nc1ccc(C(=O)OCC[N+](C)(CC)CC)cc1 [OTILONIUM BROMIDE]
Output line: 3.1 µM

Input line: Now the compound Cc1ccc(C(=O)c2cc(O)c(O)c([N+](=O)[O-])c2)cc1
Output line: > 10 µM

Input line: Now the compound Nc1nc2ccc(OC(F)(F)F)cc2s1
Output line: > 30 µM
